target: NACHT, LRR and PYD domains-containing protein 3 (Mus musculus); experiment: Inhibition of NLRP3 inflammasome activation in LPS-stimulated mouse J774A.1 cells assessed as inhibition of cell pyrolysis at 10 uM incubated for 1 hr followed by ATP addition and measured after 30 mins by Hoechst 33342/propidium iodide staining based high content screening method relative to control; details: J774.A1, time 1.5 hrs
Classification field: satisfied = inhibition at or over 40%; not satisfied = inhibition under 40%.

MOLECULAR_STRING: COCCCOc1ccc(/C=C/c2cc(OC)cc(OC)c2/C=C/[N+](=O)[O-])cc1
MEASURED_ON: NACHT, LRR and PYD domains-containing protein 3 (Mus musculus)
CLASSIFICATION: satisfied
--
MOLECULAR_STRING: COc1cc(/C=C/c2ccc(OCC(=O)NC3CCCCC3)cc2)c(/C=C/[N+](=O)[O-])c(OC)c1
MEASURED_ON: NACHT, LRR and PYD domains-containing protein 3 (Mus musculus)
CLASSIFICATION: not satisfied
--
MOLECULAR_STRING: COc1cc(/C=C/c2ccc(NC(=O)CCCl)cc2)c(/C=C/[N+](=O)[O-])c(OC)c1
MEASURED_ON: NACHT, LRR and PYD domains-containing protein 3 (Mus musculus)
CLASSIFICATION: satisfied
--
MOLECULAR_STRING: COCCOc1ccc(/C=C/c2cc(OC)cc(OC)c2-c2cnn[nH]2)cc1
MEASURED_ON: NACHT, LRR and PYD domains-containing protein 3 (Mus musculus)
CLASSIFICATION: not satisfied
